Source: PubChem BioAssay (NCI)

experiment summary: NCI Yeast Anticancer Drug Screen. Data for the mgt1 strain (AID 153)
condition label: S. cerevisiae mgt1 mutant growth inhibition; at 100.0 µM
This is part of a sample that, as a whole, favours compounds with a hit. Of some 79,000 tested, about 15% had one in any assay. Calls of active or inactive are those of the source. Rule as the data show it: active = growth inhibition above about 70%; inactive = the rest.
Result category, one only: active, inactive

Answered cases to consult:
[
  {
    "molecule": "CN(N=O)C(=O)N[C@@H](C=O)[C@@H](O)[C@H](O)[C@H](O)CO",
    "category": "inactive"
  },
  {
    "molecule": "COc1ccc(N2CN(C)CSC2=S)cc1",
    "category": "inactive"
  },
  {
    "molecule": "Nc1nc(N)c2cc(Sc3ccc4ccccc4c3)ccc2n1",
    "category": "active"
  },
  {
    "molecule": "Cc1cc(N=C2C=CC(=[N+](C)C)C=C2)c(N)cc1N",
    "category": "active"
  },
  {
    "molecule": "ClCCn1c(CCl)nc2ccc(Cl)cc21",
    "category": "active"
  },
  {
    "molecule": "[Pt].c1ccc(P(CCP(c2ccccc2)c2ccccc2)CCP(c2ccccc2)c2ccccc2)cc1",
    "category": "active"
  }
]

Exam item: Per the records of this test, what outcome belongs to "COc1ccc(N)c2c1C(=O)c1ccccc1C2=O" ?
Marked response: active

Exam item: Tell me the assay call for "CC(=O)[O-].O=C([CH-]C(=O)c1ccccc1)c1ccccc1.O=C([CH-]C(=O)c1ccccc1)c1ccccc1.[Sm+3]" please.
Marked response: active

Exam item: Record request — test call for "NNC(=S)Nc1cccc2ccccc12"
Marked response: inactive

Exam item: # fetch the recorded call for "CCOc1ccc(C(=O)CCC(=O)O)c(C)c1" here
Marked response: inactive

Exam item: State the result this test recorded for COc1cccc(C(c2cc3c(cc2O)OCO3)N2CCOCC2)c1OC (centres undefined) .
Marked response: inactive

Exam item: Check the results log: what was the call for COc1cc([C@@H]2c3cc4c(cc3[C@@H](OC3OC5COC(C)OC5C(O)C3O)[C@H]3COC(=O)[C@H]23)OCO4)cc(OC)c1O (some centres undefined) ?
Marked response: inactive

Exam item: What outcome does the record of this test show for "C(=N/NC1=NCCN1)/c1c2ccccc2c(/C=N\NC2=NCCN2)c2ccccc12" ?
Marked response: active

Exam item: Could you check what this test reported for "COc1ccc2oc(-c3ccc(Cl)cc3)c(N3CCN(C)CC3)c2c1" ?
Marked response: active
